# tested system: Beta-2 adrenergic receptor (Homo sapiens, UniProt P07550)
# Sequence (P07550 whole entry): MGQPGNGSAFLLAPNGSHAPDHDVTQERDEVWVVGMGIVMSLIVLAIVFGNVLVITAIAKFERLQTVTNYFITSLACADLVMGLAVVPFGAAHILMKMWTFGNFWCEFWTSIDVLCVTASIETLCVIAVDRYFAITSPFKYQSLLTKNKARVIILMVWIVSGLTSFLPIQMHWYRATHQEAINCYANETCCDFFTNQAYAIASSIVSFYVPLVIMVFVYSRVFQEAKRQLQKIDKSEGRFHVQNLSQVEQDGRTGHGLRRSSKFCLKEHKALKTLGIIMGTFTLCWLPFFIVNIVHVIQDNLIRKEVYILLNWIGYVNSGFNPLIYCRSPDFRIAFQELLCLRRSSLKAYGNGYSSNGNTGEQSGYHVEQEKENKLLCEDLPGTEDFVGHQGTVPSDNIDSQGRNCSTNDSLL
outcome measure: pKd
// pKd: -log10(molar conc.)

Reported pKd for CNC(C)Cc1ccccc1OC (stereo unspecified) : what is it?
9.01
